- Test system: HT-29
- ASSAY: NCI tumour cell line growth inhibition, 48 h
Active and inactive are the calls of the source. Cut-off read from the data, not from the text of the source: active = GI50 up to about 1.1 µM and inactive = higher.
Form entry, call: pick from true (1) = active, false (0) = inactive

How did this test come out for CCOC(=O)C1C(c2ccc(OC)cc2)c2c(n[nH]c2O)CC1(C)O (stereo unspecified) ?
false (0)

For CCn1cc(C(=O)O)c(=O)c2cc(F)c(N3CCN(CN4C(=O)/C(=N\c5ncc(Cc6cc(OC)c(OC)c(OC)c6)c(N)n5)c5cc(Cl)ccc54)CC3)cc21 , which call appears in the assay record?
false (0)

Hello, I am checking results. What call was entered for CSc1cccc(-n2c3nc(=O)n(C)c(=O)c-3nc3ccccc32)c1 ?
false (0)

Can you look up the reported call for Cc1cc(Cl)ccc1NC(=O)C(=O)Cc1nc2ccc(C(=O)c3ccccc3)cc2nc1O for me?
false (0)

Per the records of this test, what outcome belongs to CC(C)=CCCC1(C)C=Cc2c(c(C)cc3c2[nH]c2cc(O)ccc23)O1 (stereo unspecified) ?
false (0)

# fetch the recorded call for COc1cc(C(O)CCBr)c(OC)cc1C (stereo unspecified) here
false (0)

// param item: CC(C)[Si](Oc1cc2c3c(ccc2c(O)c1[C@@H](C)CO[Si](C)(C)C(C)(C)C)C(C)(C)CCC3)(C(C)C)C(C)C ; yields the recorded call
false (0)

What did the test return for Cc1c(CNc2ccc(Cl)c(C(=O)NC(CC(=O)O)C(=O)O)c2)ccc2nc(N)nc(N)c12 (stereo unspecified) ?
true (1)

// param item: CCOC(=O)/C=C(\C(=O)OCC)n1ccc(=O)n(Cc2cn(CCCCOC(C)=O)nn2)c1=O ; yields the recorded call
false (0)

Please let me know the test result on file for Cc1cccc(C2NC(=O)c3ccccc3N2)c1 (stereo unspecified) .
false (0)

Entry Cc1ccc2c(c1CCCC(C)(C)O)C(=O)C(O)=C(C(C)C)C2=O : call = ?
false (0)

Hey, what did the test say about CCOC(=O)NNC(=O)NCCCCNC(=O)NNC(=O)OCC ?
false (0)

For CN(C)c1ncnc2c1ncn2CCn1cnc2c(N(C)C)ncnc21 , which call appears in the assay record?
false (0)

Kindly provide the recorded test outcome for the following compound: CC[C@@H](/C=C\CCC1(C[C@H](O)CCC=C(C)C)OCCO1)O[Si](C(C)C)(C(C)C)C(C)C
false (0)

Hi, sorry to bother you, what did the test record for COc1ccc2c3ccc4c(c3n(C)c2c1)C(=O)C=CC4=O ?
false (0)

Each compound tested received a call. Report the one for COc1ccc2c(c1)CCc1c(C(C)=O)c3ccccc3n1C2 .
false (0)

Tell me the assay call for O=c1[nH]n(Cc2ccccc2)c2ccc([N+](=O)[O-])cc12 please.
false (0)

Kindly provide the recorded test outcome for the following compound: CSc1ccc(-c2cc(-c3nc4ccccc4[nH]3)nc3[nH]c(-c4nc5ccccc5[nH]4)cc(=O)c23)cc1
false (0)

I would be grateful if you could indicate the recorded call for Nc1c(C(=O)c2ccccc2)nnc2ccccc12 .
false (0)

Which outcome did this test record for the compound CCOC(=O)CC(=O)ON(C)C(=O)Cc1ccccc1 ?
false (0)

Dear colleague, could you share the recorded outcome for O=S(=O)(O)CCSSCCS(=O)(=O)O when you have a moment?
false (0)

###

- Tested on: DU-145
- ASSAY: NCI tumour cell line growth inhibition, 48 h
Active and inactive are the calls of the source. Cut-off read from the data, not from the text of the source: active = GI50 up to about 1.1 µM and inactive = higher.
Result category, one only: T = active, F = inactive

Just curious, what result did Oc1cccc(-c2ccc3c4c2O[C@H]2c5[nH]c6ccccc6c5C[C@@]5(O)[C@@H](C3)N(CC3CC3)CC[C@]425)c1 get here?
F

Tell me the recorded outcome of this test for CCOC(=O)Cc1csc2[n+]1C(=O)/C(=C\c1cccc(Cl)c1Cl)S2 .
F

Any idea what this test logged for COc1ccc(-c2cc(-c3cc4cc(Br)ccc4nc3Cl)c(C#N)c(N)n2)cc1 ?
F

GET /call?item= COC(=O)CSC1CC(=O)c2c(Cl)sc(Cl)c21 (stereo unspecified) returns the recorded outcome of this test.
F

Hi team, can someone confirm the assay call for CS(=O)(=O)c1nc(-c2cc3c(c(S(C)(=O)=O)n2)CCC3)cc2c1CCCCC2 ?
F

// return assay outcome for O=C1/C(=C/c2cccc([N+](=O)[O-])c2)CCCc2ccccc21
F

Could you kindly confirm the outcome this assay logged for Cc1nc2ccc(NCCN(C)C)c3c(=O)c4ccccc4n1c23 ?
F

How was C[C@@H]1OC(=O)C[C@H]2CC(=O)N(CCC3CN(C(=O)c4ccccc4)c4ccccc43)C[C@@H]21 (stereo partly specified) classified in this test?
F

What outcome does the record of this test show for CCN(CC)c1nc(=O)c(C(=O)C(C)(C)C)c(C(C)(C)C)o1 ?
F

Which result was noted for this compound in the test: CN1CCCC(OC(=O)c2cc3cc(CCl)ccc3oc2=O)C1 (stereo unspecified)
F

Could you please tell me the result logged for COc1ccc(S(=O)(=O)N/N=C/C(=O)O)cc1 in this assay?
F

Kindly provide the recorded test outcome for the following compound: N=c1ccn2c(n1)OC1C(OP(=O)(O)O)C(CO)OC12 (stereo unspecified)
F

Assay result, entry CN(C)CCN1C(=O)c2ccccc2C1(O)c1ccc(Cl)cc1 (stereo unspecified) — outcome?
F

Hi, do you know how Cc1ccc(S(=O)(=O)NC(=O)NCCc2c[nH]cn2)cc1 came out in this test?
F

Which outcome was entered for the compound CN(CC(=O)O)c1ncc2c(n1)-c1ccccc1SC2 in this test?
F

Outcome? Cc1ccc(C(=O)c2[nH]c(Nc3cc(C)ccn3)c(C(=S)Nc3ccccc3)c2N)cc1
F

Please indicate how the test categorized CSc1cc(N)ccc1/N=N/c1ccc(S(N)(=O)=O)cc1 .
F

What did this assay record as the result for NC1(c2cc3ccccc3s2)CCCC1 ?
F

Could you kindly confirm the outcome this assay logged for c1ccc(/C(=N\Nc2nc3ccccc3[nH]2)c2ccccn2)cc1 ?
F

# fetch the recorded call for CC(=O)NC1C(OCc2ccccc2)OC(CO)C(O)C1OCC(=O)NC(C)C(=O)NC(CCC(=O)NCCCCCNc1c2ccccc2nc2cccc([N+](=O)[O-])c12)C(N)=O (stereo unspecified) here
T

Test call, this compound: CCNc1nc2ccccc2nc1NCC
F

###

- Test system: LOX IMVI
- ASSAY: NCI tumour cell line growth inhibition, 48 h
Active and inactive are the calls of the source. Cut-off read from the data, not from the text of the source: active = GI50 up to about 1.1 µM and inactive = higher.
Tick one outcome: TRUE for active, FALSE for inactive

// outcome(item) with item = COc1ccccc1C1c2cc3c(cc2OC2(OC)COC(=O)C12)OCO3 (centres undefined)
FALSE

Assay outcome for O=C1Nc2ccccc2/C1=C1/Nc2ccccc2/C1=N\OCCNCC(O)C(O)C(O)C(O)CO (centres undefined) : what was it?
FALSE

So what was the verdict on O=c1ccc2cc(O)c(O)cc2o1 in this test?
FALSE

What did this assay record as the result for COc1ccc(S(=O)(=O)N/N=C(\C)CN2C(=O)c3ccccc3C2=O)cc1 ?
FALSE

Assay result, entry CC1(c2ccc(Cl)cc2)C2C(=O)NC(=O)C1C(=O)NC2=O (centres undefined) — outcome?
FALSE

What call does the record list for c1ccc(/C(=N\Nc2nc3ccccc3[nH]2)c2ccccn2)cc1 ?
TRUE

Recorded test call requested for O=[N+]([O-])c1cccc(-c2oc(/C=N/c3ccccc3)c([N+](=O)[O-])c2-c2cccc([N+](=O)[O-])c2)c1
FALSE

For this molecule, state the assay outcome: CC(=O)OCCCC(NC(=O)OC(C)(C)C)C(=O)NC(CCCOC(C)=O)C(=O)NC(Cc1ccc([N+](=O)[O-])cc1)C(=O)NCC(=O)OCc1ccccc1 (centres undefined)
FALSE

Per the assay record, what outcome was assigned to O=C(CNc1ccccc1Cl)Nn1c(-c2ccccc2)nc2ccccc2c1=O ?
FALSE

###

- Test system: OVCAR-4
- ASSAY: NCI tumour cell line growth inhibition, 48 h
Active and inactive are the calls of the source. Cut-off read from the data, not from the text of the source: active = GI50 up to about 1.1 µM and inactive = higher.
For each entry below, report its GI50 value.

Recorded GI50 for Cc1cc(O)nc(NNC(C#N)c2cccc(O)c2)n1 (stereo not drawn) with OVCAR-4, please?
> 100 µM (inactive)

Missing value: GI50, OVCAR-4, entry Cc1ccc(/C=C2\CCC/C(=C\c3ccc(O)c(CN4CCCCC4)c3)C2=O)cc1 . Fill in?
11.1 µM (inactive)

Observed GI50 on OVCAR-4 for CC(C)=CC(=O)OC1C2C(C)C(=O)OC2C(O)C(C)C2C=CC(=O)C21C (stereo not drawn) , please.
3.13 µM (inactive)

###

- System: SK-MEL-5
- ASSAY: NCI tumour cell line growth inhibition, 48 h
The source made the active and inactive calls. Cut-off read from the data, not from the text of the source: active = GI50 up to about 1.1 µM and inactive = higher.
READOUT_TYPE: GI50

GET /values?readout=GI50&item= Cc1ccc([S+]([O-])c2ccccc2[N+](=O)[O-])cc1 (configuration not stated)
70 µM (inactive)

If you can, please state the reported GI50 value of NC(=O)Nc1ccc(S(=O)(=O)Nc2ccc(S(N)(=O)=O)cc2)cc1 .
> 100 µM (inactive)

Recorded GI50 of CC(C)=CC(=O)OC1C2C(C)C(=O)OC2C(O)C(C)C2C=CC(=O)C21C (configuration not stated) , please.
3.32 µM (inactive)

Record request: GI50 value, item CCCCC(C#N)(OP1(=O)OC(c2ccccc2)C(C)N1C)c1ccccc1 (configuration not stated)
17.3 µM (inactive)

Need GI50, item O=C1c2c(ccc3c2CCCC3)CC12Cc1ccccc1C2
6.19 µM (inactive)

What value of GI50 has been recorded for this entry: COc1cc(S(=O)(=O)Nc2ccc(-c3csc(/N=C\c4ccccc4)n3)cc2)ccc1Cl
52.7 µM (inactive)

Which GI50 is reported for this molecule? CN(C)c1ncnc2c1ncn2CCn1cnc2c(N(C)C)ncnc21
> 100 µM (inactive)

Query: GI50; subject: CN1CCN(c2ccc3[nH]c(-c4ccc5[nH]c(-c6ccc(O)cc6)nc5c4)nc3c2)CC1
11.8 µM (inactive)

// query GI50 value for entry COc1cccc(-n2nnc3c(N)nc(N)nc32)c1
> 100 µM (inactive)

# lookup: GI50 of C=C1C(O)CC[C@]2(C)C1C1OC(C)(C)O[C@]13CC(=O)C(C)=C([C@H]1OC(C)(C)OC12)C3(C)C (some centres not stated)
> 100 µM (inactive)

Which value of GI50 has been reported for CS(=O)(=O)c1nc(-c2cc3c(c(S(C)(=O)=O)n2)CCC3)cc2c1CCCCC2 in the records?
> 100 µM (inactive)

Data request, read-out GI50, for Cc1ccc(C(=O)c2[nH]c(Nc3cc(C)ccn3)c(C(=S)Nc3ccccc3)c2N)cc1
> 100 µM (inactive)

Param item = COc1ccc(S(=O)(=O)N/N=C/C(=O)O)cc1 ; retrieve measured GI50.
400 µM (inactive)

Find the recorded GI50 belonging to O=S(=O)(N=S(c1ccc(Cl)cc1)c1ccc(Cl)cc1)c1ccccc1 and report it.
71 µM (inactive)

I am curious: what GI50 value has been reported for O=C(/C=C/c1ccccc1O)C(c1ccccc1)c1ccccc1 ?
> 100 µM (inactive)

Requested field: GI50. Item: O=C(O)C1C2OC(C(Br)C2Br)C1C(=O)O (configuration not stated)
> 100 µM (inactive)

Form field: reported GI50 of O=C1Nc2ccccc2/C1=C1/Nc2ccccc2/C1=N\OCCNCC(O)C(O)C(O)C(O)CO (configuration not stated)
8.36 µM (inactive)

Name the recorded GI50 for Cc1nc2ccc(NCCN(C)C)c3c(=O)c4ccccc4n1c23 .
2.21 µM (inactive)

What value of GI50 has been reported for the following molecule? CN(C)CCC(/C=C/c1ccccc1)=N\Nc1c(F)c(F)c(F)c(F)c1F
15.5 µM (inactive)

Please give the measured GI50 for this molecule: N#CC(NNC(=O)c1ccccc1O)c1ccccc1O (configuration not stated)
8.89 µM (inactive)

Recorded GI50 of CCOc1ccccc1NC(=O)CCC(=O)NN , please.
> 100 µM (inactive)

# GI50 lookup, item O=C(NI1OC(=O)c2ccccc21)c1ccc(Cl)cc1
> 100 µM (inactive)
